Sourced from patent US9034886B2

# System: HDACs
# method-summary: In vitro inhibition of HDACs (HDAC Inhibitor Drug Screening Kit, Biovision K340-100)
# Assay type: biochemical
# condition-info: 200 μM
Recorded measurements of Inhibition percentage (%) towards HDACs, one per entry
measure: Inhibition percentage (%) towards HDACs

{"chemical-structure": "COc1cc2ncnc(Nc3ccc(C(=O)Nc4cc(F)ccc4N)cc3)c2cc1OCCCN1CCOCC1", "reported-value": "56.8%"}
{"chemical-structure": "Nc1ccccc1NC(=O)c1ccc(Nc2ncnc3ccc(F)cc23)cc1", "reported-value": "43.0%"}
{"chemical-structure": "COc1ccc2ncnc(Nc3ccc(C(=O)Nc4cc(F)ccc4N)cc3)c2c1", "reported-value": "58.0%"}
{"chemical-structure": "Nc1ccccc1NC(=O)c1ccc(Nc2ncnc3cc(F)ccc23)cc1", "reported-value": "20.1%"}
{"chemical-structure": "Nc1ccccc1NC(=O)c1ccc(CNc2ncnc3ccccc23)cc1", "reported-value": "82.6%"}
{"chemical-structure": "Nc1cnccc1NC(=O)c1ccc(CNc2ncnc3ccccc23)cc1", "reported-value": "40.2%"}
{"chemical-structure": "COc1cccc2c(Nc3ccc(C(=O)Nc4ccccc4N)cc3)ncnc12", "reported-value": "7.8%"}
{"chemical-structure": "COc1cccc2ncnc(Nc3ccc(C(=O)Nc4ccccc4N)cc3)c12", "reported-value": "22.1%"}
{"chemical-structure": "COCCOc1cc2ncnc(Nc3ccc(C(=O)Nc4ccccc4N)cc3)c2cc1OCCOC", "reported-value": "51.5%"}
{"chemical-structure": "COc1ccc2c(NCc3ccc(C(=O)Nc4ccccc4N)cc3)ncnc2c1", "reported-value": "3.1%"}
{"chemical-structure": "CC(=O)Nc1ccc2ncnc(Nc3ccc(C(=O)Nc4ccccc4N)cc3)c2c1", "reported-value": "39.1%"}
{"chemical-structure": "Nc1ccc(F)cc1NC(=O)c1ccc(Nc2ncnc3c(F)cccc23)cc1", "reported-value": "67.1%"}
{"chemical-structure": "CS(=O)(=O)CCNCc1ccc(-c2ccc3ncnc(Nc4ccc(C(=O)Nc5ccccc5N)cc4)c3c2)o1", "reported-value": "57.8%"}
{"chemical-structure": "COc1cc2ncnc(Nc3ccc(C(=O)Nc4cc(-c5ccco5)ccc4N)cc3)c2cc1OC", "reported-value": "55.2%"}
{"chemical-structure": "COc1cc2ncnc(NCc3ccc(C(=O)Nc4cc(-c5cccs5)ccc4N)cc3)c2cc1OC", "reported-value": "17.3%"}
{"chemical-structure": "COC(=O)Cc1ccc2ncnc(Nc3ccc(C(=O)Nc4ccccc4N)cc3)c2c1", "reported-value": "47.5%"}
